- Target entity: Phosphatidylinositol 4,5-bisphosphate 3-kinase catalytic subunit beta isoform (Homo sapiens, UniProt P42338)
- Sequence (P42338 whole entry, canonical isoform): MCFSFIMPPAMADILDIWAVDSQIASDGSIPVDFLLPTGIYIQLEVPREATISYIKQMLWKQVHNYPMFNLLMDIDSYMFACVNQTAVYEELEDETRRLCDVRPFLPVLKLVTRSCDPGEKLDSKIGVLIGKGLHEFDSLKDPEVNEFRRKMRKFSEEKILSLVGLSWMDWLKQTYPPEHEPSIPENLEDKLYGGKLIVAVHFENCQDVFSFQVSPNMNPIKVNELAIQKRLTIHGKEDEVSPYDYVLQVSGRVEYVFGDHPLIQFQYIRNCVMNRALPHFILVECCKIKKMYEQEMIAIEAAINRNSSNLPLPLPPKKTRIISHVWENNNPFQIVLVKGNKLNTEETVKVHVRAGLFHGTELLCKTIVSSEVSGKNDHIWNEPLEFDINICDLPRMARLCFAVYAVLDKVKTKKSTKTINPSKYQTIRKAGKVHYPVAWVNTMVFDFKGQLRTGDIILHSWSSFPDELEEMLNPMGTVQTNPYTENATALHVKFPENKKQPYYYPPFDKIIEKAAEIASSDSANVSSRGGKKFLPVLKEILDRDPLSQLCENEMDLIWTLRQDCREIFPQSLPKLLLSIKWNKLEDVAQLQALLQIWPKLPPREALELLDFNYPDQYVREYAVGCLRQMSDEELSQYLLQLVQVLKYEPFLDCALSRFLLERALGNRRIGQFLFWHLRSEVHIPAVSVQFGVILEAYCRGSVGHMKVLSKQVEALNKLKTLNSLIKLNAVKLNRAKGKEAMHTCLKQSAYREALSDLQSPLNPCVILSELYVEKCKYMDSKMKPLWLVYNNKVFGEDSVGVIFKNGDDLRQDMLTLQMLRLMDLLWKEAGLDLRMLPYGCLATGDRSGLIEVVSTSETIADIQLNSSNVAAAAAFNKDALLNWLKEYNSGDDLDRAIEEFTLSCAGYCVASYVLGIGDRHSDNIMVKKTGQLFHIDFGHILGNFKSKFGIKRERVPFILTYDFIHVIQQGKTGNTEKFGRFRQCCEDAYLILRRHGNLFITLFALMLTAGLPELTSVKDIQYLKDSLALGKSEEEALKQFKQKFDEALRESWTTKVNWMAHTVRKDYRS
- Method notes: Inhibition of PI3K-beta (unknown origin) by cell free biochemical assay
// values below are reported IC50
Give the quantity in µM, number only.

1) Cc1ccccc1-n1c(Cn2cc(-c3ccccc3)nn2)nc2cccc(C)c2c1=O    430

# lookup: IC50 of COc1ccc(-c2cn(Cc3nc4cccc(C)c4c(=O)n3-c3ccccc3C)nn2)c(C)c1
355

###

- System: MCF7
- Method notes: Antiproliferative activity against human MCF7 cells after 24 to 48 hrs by MTT assay
- Assay type: functional, cell-based
pIC50: −log10 of the molar value.
Endpoint label: pIC50

Field: example entries. Status: answers known.
1) Cc1ccccc1-n1c(Cn2cnc3c(N)ncnc32)nc2cccc(C)c2c1=O    < 5.00
2) Cc1ccccc1-n1c(Cn2cc(-c3ccc(Br)cc3)nn2)nc2ccccc2c1=O    < 5.00
3) COc1ccc(OCc2cn(Cc3nc4ccccc4c(=O)n3-c3ccccc3C)nn2)cc1    < 5.00
4) Cc1ccccc1-n1c(Cn2cc(-c3ccccc3C(F)(F)F)nn2)nc2ccccc2c1=O    < 5.00
5) Cc1ccccc1-n1c(Cn2cc(-c3ccccc3F)nn2)nc2cccc(C)c2c1=O    < 5.00

# lookup: pIC50 of Cc1ccc(NCc2cn(Cc3nc4cccc(C)c4c(=O)n3-c3ccccc3C(F)(F)F)nn2)cc1C
< 5.00

# lookup: pIC50 of Cc1ccccc1-n1c(Cn2cc(-c3cc(C(F)(F)F)cc(C(F)(F)F)c3)nn2)nc2ccccc2c1=O
< 5.00

# lookup: pIC50 of Cc1ccccc1-n1c(Cn2cc(-c3cccnc3)nn2)nc2cccc(C)c2c1=O
< 5.00

###

- Target entity: Phosphatidylinositol 4,5-bisphosphate 3-kinase catalytic subunit gamma isoform (Homo sapiens, UniProt P48736)
- Sequence (P48736 whole entry, canonical isoform): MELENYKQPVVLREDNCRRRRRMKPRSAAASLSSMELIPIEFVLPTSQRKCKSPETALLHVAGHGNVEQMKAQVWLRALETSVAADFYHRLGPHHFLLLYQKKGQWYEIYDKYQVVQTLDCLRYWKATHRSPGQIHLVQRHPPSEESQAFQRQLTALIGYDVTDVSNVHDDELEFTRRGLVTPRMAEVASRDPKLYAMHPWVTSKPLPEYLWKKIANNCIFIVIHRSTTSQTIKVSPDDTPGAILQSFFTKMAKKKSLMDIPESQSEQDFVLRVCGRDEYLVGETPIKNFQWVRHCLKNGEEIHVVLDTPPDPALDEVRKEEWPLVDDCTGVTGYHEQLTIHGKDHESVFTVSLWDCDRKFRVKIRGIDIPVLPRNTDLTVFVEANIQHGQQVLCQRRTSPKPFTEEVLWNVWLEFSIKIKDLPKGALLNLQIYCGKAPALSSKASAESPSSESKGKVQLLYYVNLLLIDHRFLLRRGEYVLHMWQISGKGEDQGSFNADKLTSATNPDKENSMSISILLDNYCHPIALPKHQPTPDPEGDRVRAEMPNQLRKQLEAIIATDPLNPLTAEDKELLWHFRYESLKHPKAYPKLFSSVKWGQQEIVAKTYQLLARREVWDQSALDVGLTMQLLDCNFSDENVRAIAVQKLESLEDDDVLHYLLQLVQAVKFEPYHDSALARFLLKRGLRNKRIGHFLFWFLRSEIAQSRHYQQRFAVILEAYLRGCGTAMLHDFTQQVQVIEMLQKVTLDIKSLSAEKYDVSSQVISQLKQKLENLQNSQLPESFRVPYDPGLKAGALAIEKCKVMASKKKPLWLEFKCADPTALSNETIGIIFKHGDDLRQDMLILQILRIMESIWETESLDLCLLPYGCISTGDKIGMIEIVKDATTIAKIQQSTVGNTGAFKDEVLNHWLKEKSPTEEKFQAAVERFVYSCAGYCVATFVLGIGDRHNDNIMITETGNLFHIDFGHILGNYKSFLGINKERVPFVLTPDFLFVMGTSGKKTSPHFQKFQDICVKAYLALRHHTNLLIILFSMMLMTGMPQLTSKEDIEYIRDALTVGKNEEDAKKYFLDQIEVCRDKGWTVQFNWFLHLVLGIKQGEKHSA
- Method notes: Inhibition of PI3K-gamma (unknown origin) by cell free biochemical assay
// values below are reported pIC50
Give only the number. pIC50 is defined as minus log10 of concentration in molar units.

1) COc1ccc(-c2cn(Cc3nc4cccc(C)c4c(=O)n3-c3ccccc3C)nn2)c(C)c1    5.52

API: the following record is the query input.
# lookup: pIC50 of Cc1ccccc1-n1c(Cn2cc(-c3ccccc3)nn2)nc2cccc(C)c2c1=O
6.00
